- assay.protocol: Cytotoxicity by neutral red dye uptake in AVA5 cells
- Assay type: cell-based
- measurement.setup: human, Genotype 1b replicon

{"columns": ["compound", "CC50 at 3 days [µM]"],
 "data": [
  ["CC(=O)Oc1ccccc1C(=O)Nc1ncc([N+](=O)[O-])s1 [NTZ, nitazoxanide]", 38]
]}

* * *

- Test system: HCV replicon cells, genotype 1B
- assay.protocol: Secondary HCV replicon cell assay, genotype 1B, cytotoxicity
- Assay type: cell-based
observable: CC50 (µM)

{"columns": ["molecule", "observable", "operator.symbol", "measured.value"],
 "data": [
  ["CS(=O)(=O)c1cnc(NC(=O)c2ccccc2O)s1 [Compound 6]", "CC50", ">", 10],
  ["CS(=O)(=O)c1cnc(NC(=O)c2ccccc2O)s1 [Compound 75]", "CC50", "=", 54]
]}

* * *

- Tested on: 2.2.15 cells
- assay.protocol: Cytotoxicity by neutral red dye uptake in 2.2.15 cells
- measurement.setup: confluent 2.2.15 cultures, nine daily doses, neutral red uptake
As shown below, each of these compounds has a reported CC50 value.

{"columns": ["compound", "CC50"],
 "data": [
  ["O=C(Nc1ncc(Br)s1)c1ccccc1O [RM4832]", "> 100 µM"],
  ["Cc1cccc(C(=O)Nc2ncc(Cl)s2)c1O [RM4851]", "> 100 µM"],
  ["Cc1ccc(C(=O)Nc2ncc(Cl)s2)c(O)c1 [RM4852]", "> 100 µM"],
  ["O=C(Nc1ncc(Cl)s1)c1ccccc1O [RM4848]", "> 100 µM"],
  ["CC(C)(C)C(=O)OCOP(=O)(COCCn1cnc2c(N)ncnc21)OCOC(=O)C(C)(C)C [ADV, adefovir dipovoxil]", "> 300 µM"],
  ["Cc1ccc(O)c(C(=O)Nc2ncc(Cl)s2)c1 [RM4850]", "> 100 µM"]
]}

* * *

- System: HBV
- assay.protocol: HBV antiviral assay in confluent 2.2.15 cell cultures (HBV DNA, quantitative blot hybridization)
- Assay type: cell-based, Hepatitis B Virus
- measurement.setup: Hepatitis B virus; 2.2.15 cells, Table 3 experiment; read-out: Virion production EC50
pEC50: −log10 of the molar value.
As shown below, each of these compounds has a reported pEC50 value.

{"columns": ["compound", "tgt", "pEC50"],
 "data": [
  ["Nc1ccn([C@@H]2CS[C@H](CO)O2)c(=O)n1 [LMV, lamivudine]", "HBV", 7.30],
  ["CC(=O)Oc1ccccc1C(=O)Nc1ncc([N+](=O)[O-])s1 [NTZ, nitazoxanide]", "HBV", 6.72]
]}

* * *

- System: HCV replication
- assay.protocol: HCV replicon assay in the presence of human serum
- Format: cell-based
- measurement.setup: Hepatitis C virus, human serum 0 %
pEC50: −log10 of the molar value.

{"columns": ["compound", "tgt", "pEC50"],
 "data": [
  ["O=C(Nc1ncc([N+](=O)[O-])s1)c1ccccc1O [TIZ, tizoxanide]", "HCV replication", 6.60]
]}

* * *

- System: Wild-type HBV
- assay.protocol: 5-day transient transfection assay in Huh7 cells, intracellular HBV RI by Southern blot
- Assay type: cell-based, Hepatitis B Virus
- measurement.setup: Hepatitis B virus, Huh-7; Wild-type, Huh7 transient transfection; read-out: EC50

{"columns": ["sample.smiles", "EC50 (nM)"],
 "data": [
  ["Nc1ccn([C@@H]2CS[C@H](CO)O2)c(=O)n1", 200]
]}
